Entries and their cytotoxicity at 10 µM
experiment: Toxicity liver stage against HepG2, at 10uM; type: cell-based; parameters: test concentration 10 uM, cell line HepG2-A16-CD81EGFP; details: human, HepG2-A16-CD81EGFP cells; read-out: INHIBITION
reported metric: cytotoxicity at 10 µM (%)

1. COc1cccc(OCC2CCCN(C(=O)c3cnc(C)nc3O)C2)c1 (stereo unspecified)
-15.8
2. CC1=C(c2ccc(F)cc2)S(=O)(=O)N=C1N1CCc2ccccc21
-1.29
3. COc1ccc(-c2nccn2CC(O)CN2CCCC2)c(F)c1 (stereo unspecified)
2.87
4. CC(O)CN1CCC(CNCc2ccc(S(C)(=O)=O)cc2)CC1 (stereo unspecified)
-21.4
5. CC(=O)N(Cc1ncc(C)o1)C1CCN(CCNC2CCCCC2)C1 (stereo unspecified)
15.4
6. CC(C)NS(=O)(=O)c1cc(C(=O)O)cc(-c2ccccc2CN(C)C)c1
6.41
7. CCOCC(=O)NCCc1nc(C)cc(C(F)(F)F)n1
-1.21
8. OC1CCN(CCCNc2ncccn2)CC1
2.68
9. CC(C)c1nccn1-c1cccc(C2CCCN(S(=O)(=O)N(C)C)C2)n1 (stereo unspecified)
-3.11
10. COCCN(C)C(=O)c1nc2c(s1)CCCN2C(=O)C1CC1
-143
11. Cc1n[nH]c(C2CN(CC(=O)NCCc3ccccc3)CCO2)n1 (stereo unspecified)
10.2

###

experiment: Toxicity liver stage against HepG2, at 10uM; type: cell-based; design: test concentration 10 uM, cell line HepG2-A16-CD81EGFP; details: human, HepG2-A16-CD81EGFP cells; read-out: INHIBITION
Entries and their cytotoxicity at 10 µM
reported metric: cytotoxicity at 10 µM

1. CN(C)c1ncc(CN2CCC(c3nnsc3S(C)(=O)=O)CC2)cn1
4.12%
2. NC(=O)C1CN(c2ncnc3c2Cc2ccccc2OC3)CCO1 (centres undefined)
0.0255%
3. CC(C)c1nsc(N2CCn3c(nnc3C(F)(F)F)C2)n1
5.83%
4. CC(=O)N1CCC12CCN(Cc1ccco1)CC2
1.17%
5. COCCS(=O)(=O)NC(C)c1ccc(-n2nc(C)cc2C)cc1 (centres undefined)
1.91%
6. O=C(C1CC1)N1CCc2c(ncnc2NCCc2nc3c(s2)CCC3)C1
-1.05%
7. COc1cccc(-n2nnc(C(=O)N3CCNC(=O)C3)c2C)c1
-10.3%
8. CN(C)c1ccc(CC2CCCN(c3cnccn3)C2)nn1 (centres undefined)
4.71%
9. NC(=O)c1noc(Cn2ccc3ccccc3c2=O)n1
1.39%
10. Cc1nc(-c2ccc(S(=O)(=O)N3CCSCC3)cc2)co1
5.18%
11. Cc1cnc(N2C(=O)CSC2c2ccc(F)cc2)s1 (centres undefined)
-2.92%
12. Cc1nc(CCCNC(=O)c2cc(F)ccc2O)n[nH]1
-5.32%
13. COCC1c2nnn(CC3CC3)c2CCN1C(=O)c1cnccn1 (centres undefined)
-140%
14. CCc1noc(CN(C)Cc2cc(Br)ccc2OC)n1
3.91%
15. CN(C(=O)COC1CCCCC1)C1CCN(CC2CCOC2)CC1 (centres undefined)
0.33%
16. Cn1cc(C(=O)NC2CCN(Cc3ccn(C)c(=O)c3)CC2)cn1
-16.7%
17. CCC(NC(=O)CCCN1CCCCC1)c1cn2cccnc2n1 (centres undefined)
8.09%
18. COCCOCC(=O)Nc1ccc(C)cc1Cl
1.85%
19. Cn1c(C(N)=O)ccc1-c1ccccc1
3.18%
20. CC1CN=C(N2CCN(C(=O)Nc3nc(-c4ccccc4)ns3)CC2)S1 (centres undefined)
10.6%
21. CC(=O)Nc1ccn(Cc2ccccc2)n1
2.04%
22. O=C(Nc1cccnc1)[C@H]1CN(Cc2ccco2)C[C@H]2OCC[C@@H]12
-114%
23. CCN1CCCC(O)(CN(C)Cc2ccc(C)o2)C1 (centres undefined)
-3.65%
24. Cn1cc(C2NC3(CCCC3)C(=O)N2CC2CC2)c(=O)n(C)c1=O (centres undefined)
6.93%
25. Cc1noc(CN(C)C2CCCN(Cc3noc(C4CC4)n3)C2)n1 (centres undefined)
-2.19%
26. CN(C)C(=O)Cc1ccc(-c2cccc3c2CCNC3)cc1
2.28%
27. Cc1cccc(CN2CCC3(CCCN(C(=O)c4ccsc4)C3)C2=O)n1 (centres undefined)
-1.14%
28. CCC(C)N(Cc1cccnc1)Cc1cc2c(cc1Cl)OCO2 (centres undefined)
6.16%
29. Cc1ccc(C)c(NC(=O)N2CCC3(CC2)NC(=O)CC3C(=O)O)c1 (centres undefined)
4.9%
30. CCn1ncc(-c2nc3c[nH]n(CC)c-3n2)c1C
2.13%
31. Cc1nnc2n1CCN(Cc1csc(-c3cnn(C)c3)n1)C2
-3.5%
32. CN(CC(=O)N1CCCC1c1noc(C2CC2)n1)S(C)(=O)=O (centres undefined)
-8.2%
33. COc1ccc(CCn2cnc(C#N)n2)cc1
0.866%
34. O=C1CCCN1Cc1noc(-c2ccc(Cl)cc2)n1
5.56%
35. COCCNC(=O)Nc1ccc(CN2CCOC2=O)cc1
-4.62%
36. CC1CN(C(=O)c2cnn(-c3ccccn3)c2C(C)C)CC(C)(C)O1 (centres undefined)
-3.09%
37. Cc1ncsc1-c1nnc(C2CCN(Cc3ccccc3)CC2)o1
-6.39%
38. CC(C)(C)SCCN1CC(=O)N2CC[C@@H](O)C[C@H]2C1=O
4.01%
39. CN(C)C(=O)[C@@H]1CC[C@@H]2[C@@H](CCN2Cc2ccccn2)O1
-3.55%
40. CCn1ccnc1CN1CCC(CNC(=O)c2ccc(C)nc2)C1 (centres undefined)
-8.8%
41. COCCOCC(=O)Nc1nc2c(OC)cc(F)cc2s1
-1.29%
42. O=C(Cc1cccs1)NCC1(O)CCSC1 (centres undefined)
-9.66%
43. Cc1ccc(NC(=O)N(CCO)CCO)c(OCc2ccccc2)c1
18.4%
44. Cc1ccc(OCC(O)CN(C)CC(=O)NC(C)C)c(C)c1 (centres undefined)
-7.55%
45. O=C(Nc1ccc(-c2ccn[nH]2)cc1)C1CCCN(Cc2ccoc2)C1 (centres undefined)
-0.16%
46. CCn1cnnc1CNC(=O)N1CCN(c2cccs2)CC1
-2.07%
47. CCCC(=O)N(CCCN1CCOCC1)c1nc2c(C)ccc(Cl)c2s1
-10.2%
48. COCCC(=O)N1CCC2(COCc3cnc(N(C)C)nc32)C1 (centres undefined)
-64.8%
49. OCc1ccc(CN(CCCn2ccnc2)Cc2ccncc2)o1
-4.41%
